targetEntity: T1, Human IL-1Rrp2/IL-1R6 protein, His Tag (ACROBiosystems, IL2-H52H6) (human, UniProt Q9HB29 20-335)
T1 construct: Bought protein; the soluble protein is likely only the extracellular part; also called hIL-36R; human IL36R antigen; not shown: His tag
T1 sequence: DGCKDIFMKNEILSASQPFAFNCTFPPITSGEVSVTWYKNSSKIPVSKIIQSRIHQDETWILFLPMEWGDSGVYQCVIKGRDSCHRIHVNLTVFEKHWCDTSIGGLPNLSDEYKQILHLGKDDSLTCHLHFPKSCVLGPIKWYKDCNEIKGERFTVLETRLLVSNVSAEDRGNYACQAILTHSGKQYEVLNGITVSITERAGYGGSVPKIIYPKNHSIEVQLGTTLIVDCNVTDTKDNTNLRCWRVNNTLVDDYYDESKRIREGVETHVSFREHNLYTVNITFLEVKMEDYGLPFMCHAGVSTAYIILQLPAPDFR
testProtocol: ELISA, plate coated with human IL-1Rrp2/IL-1R6 His Tag, HRP-protein A/G, OD450
reportedMetric: pEC50
Scale: negative log10 of molar concentration, which is what pEC50 denotes.

- binder: "hz84C4-2.2 (antibody, human IgG4 S228P, kappa, V domains shown, Humanized, human IgG4 / kappa) VH: QVQLVQSGAEVKKPGASVKVSCKASGYFFTSYWMNWVRQAPGQGLEWMGYIHPYDSETRYAQKFQGRVTMTVDKSTSTVYMELSSLRSEDTAVYYCASSTTAFAYWGQGTLVTVSS VL: DIQMTQSPSSLSASVGDRVTITCRASQDIGNALNWLQQKPGKAPKRLIYATSSLDPGVPSRFSGSRSGTDYTLTISSLQPEDFATYYCLQYASSPYTFGQGTKVEIKR"
  pEC50: 9.27
- binder: "hz84C4-2.3 (antibody, human IgG4 S228P, kappa, V domains shown, Humanized, human IgG4 / kappa) VH: QVQLVQSGAEVKKPGASVKVSCKASGYFFTSYWMNWVRQAPGQGLEWMGMIYPYDSETRYAQKFQGRVTMTVDKSTSTVYMELSSLRSEDTAVYYCASSTTAFAYWGQGTLVTVSS VL: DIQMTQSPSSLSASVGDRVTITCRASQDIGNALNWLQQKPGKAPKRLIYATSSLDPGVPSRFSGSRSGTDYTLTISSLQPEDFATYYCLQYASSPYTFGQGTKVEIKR"
  pEC50: 8.65

Qu. Fill blank: measured pEC50 of the binder hz84C4-2.4 (antibody, human IgG4 S228P, kappa, V domains shown, Humanized, human IgG4 / kappa) VH: QVQLVQSGAEVKKPGASVKVSCKASGYYFTSYWMNWVRQAPGQGLEWMGMIHPYDSETRLAQKFKGRVTMTVDKSTSTVYMELSSLRSEDTAVYYCASSTTAFAYWGQGTLVTVSS VL: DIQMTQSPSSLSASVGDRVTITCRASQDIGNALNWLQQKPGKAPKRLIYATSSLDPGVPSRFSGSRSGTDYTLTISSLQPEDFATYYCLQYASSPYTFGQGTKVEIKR is ____.
Ans. 9.34

These measurements were taken from patent US20240270857A1.
